target-system: AKT1 E17K (Homo sapiens, UniProt P31749, E17K)
Sequence (P31749 whole entry E17K): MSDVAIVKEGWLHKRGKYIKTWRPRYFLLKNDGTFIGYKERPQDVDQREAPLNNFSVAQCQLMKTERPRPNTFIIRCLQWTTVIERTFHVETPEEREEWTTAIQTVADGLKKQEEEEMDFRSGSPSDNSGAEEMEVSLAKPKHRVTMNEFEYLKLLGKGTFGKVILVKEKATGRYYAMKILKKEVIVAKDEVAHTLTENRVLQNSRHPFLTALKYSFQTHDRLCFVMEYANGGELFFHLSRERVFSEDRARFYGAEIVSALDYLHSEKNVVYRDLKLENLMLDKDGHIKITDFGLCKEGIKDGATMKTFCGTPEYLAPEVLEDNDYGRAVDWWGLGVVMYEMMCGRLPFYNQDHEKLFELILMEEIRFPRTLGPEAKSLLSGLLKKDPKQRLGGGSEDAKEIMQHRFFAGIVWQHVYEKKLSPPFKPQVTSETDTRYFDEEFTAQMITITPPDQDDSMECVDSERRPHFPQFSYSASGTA
assay: Live cell AKT1 E17K target engagement by NanoBRET competitive probe displacement
condition-details: HEK293 cells transfected with kinase-NanoLuciferase fusion, 2 h at 37° C.
pIC50: −log10 of the molar value.
attribute-measured: pIC50

{"compound": "C=CC(=O)N1CCC(N[C@H]2CCc3cc(-n4c(-c5cccnc5N)nc5ccc(-n6cccn6)nc54)ccc32)C[C@@H]1C (single isomer, unassigned) [Example 66]", "attribute-measured": "pIC50", "assay-result": 7.53}
{"compound": "C=CC(=O)N1CCC(N[C@@H]2c3ccc(-n4c(-c5cccnc5N)nc5ccc(-n6ccc(C7CC7)n6)nc54)cc3CC2F)CC1C(F)F (single isomer, unassigned) [Example 334]", "attribute-measured": "pIC50", "assay-result": 8.17}
{"compound": "C=CC(=O)N1C[C@@H]2C[C@H]1CC2N[C@H]1CCc2cc(-n3c(-c4cccnc4N)nc4ccc(-n5cccn5)nc43)ccc21 (single isomer, unassigned) [Example 135]", "attribute-measured": "pIC50", "assay-result": 6.82}

A: C=CC(=O)N1CCC(F)(CN[C@H]2CCc3cc(-n4c(-c5cccnc5N)nc5ccc(-n6cccn6)nc54)ccc32)CC1 [Example 184]
B: C=CC(=O)N1CCC(N[C@H]2CCc3cc(-n4c(-c5cccnc5N)nc5ccc(-n6cccn6)nc54)ccc32)C1 (single isomer, unassigned) [Example 58]
Could you point out whether the larger pIC50 belongs to A or to B ? Answer format: the label of the selected item.
A
(A: 7.75, B: 6.72)

A: C=CC(=O)N1CCC(N[C@H]2CCc3cc(-n4c(-c5cccnc5N)nc5ccc(-n6cccn6)nc54)ccc32)C(C)(F)C1 (stereo partly drawn) [Example 308]
B: C=CC(=O)N1CCC(N[C@H]2CCc3cc(-n4c(-c5ccccc5)nc5ccc(C6CC6)nc54)ccc32)CC1 [Example 246]
C: C=CC(=O)N1CCC(N[C@@H]2c3ccc(-n4c(-c5cccnc5N)nc5ccc(-n6ccc(C#N)n6)nc54)cc3CC2F)CC1 (single isomer, unassigned) [Example 311]
List from greatest to least pIC50. Output spec: labels arranged per the requested ranking.
A, C, B
(A: 7.93, C: 7.46, B: 7.18)

P: C=CC(=O)N1CCC(N[C@H]2CCc3cc(-n4c(-c5cccnc5N)nc5ccc(N6CC[C@@H](F)C6)nc54)ccc32)CC1 [Example 194]
Q: C=CC(=O)N1CCC(N[C@H]2CCc3cc(-n4c(-c5cccnc5N)nc5ccc(C6CC6)nc54)ccc32)C(F)C1 (single isomer, unassigned) [Example 176]
Could you point out whether the larger pIC50 belongs to P or to Q ? Answer format: the label of the selected item.
P
(P: 7.86, Q: 7.42)

----------
target-system: AKT2 (Homo sapiens)
Sequence (P31751 whole entry): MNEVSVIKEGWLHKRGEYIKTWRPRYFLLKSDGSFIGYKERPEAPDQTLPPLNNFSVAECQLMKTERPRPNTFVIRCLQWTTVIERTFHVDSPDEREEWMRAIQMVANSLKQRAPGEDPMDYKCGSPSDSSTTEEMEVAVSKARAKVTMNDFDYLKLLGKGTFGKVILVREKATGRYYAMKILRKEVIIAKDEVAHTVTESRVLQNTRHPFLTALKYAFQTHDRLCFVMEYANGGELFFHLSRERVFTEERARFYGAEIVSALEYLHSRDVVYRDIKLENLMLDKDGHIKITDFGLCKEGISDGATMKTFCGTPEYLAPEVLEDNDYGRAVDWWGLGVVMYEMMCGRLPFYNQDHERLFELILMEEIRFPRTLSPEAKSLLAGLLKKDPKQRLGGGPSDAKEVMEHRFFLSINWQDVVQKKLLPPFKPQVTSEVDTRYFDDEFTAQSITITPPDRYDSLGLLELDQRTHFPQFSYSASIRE
assay: Live cell AKT2 target engagement by NanoBRET competitive probe displacement
condition-details: HEK293 cells transfected with kinase-NanoLuciferase fusion, 2 h at 37° C.
attribute-measured: IC50 (nM)

Field: example entries. Status: answers known.
{"molecule": "C=CC(=O)N1CC(N[C@H]2CCc3cc(-n4c(-c5cccnc5N)nc5ccc(-n6cccn6)nc54)ccc32)C1", "assay-result": 250}
{"molecule": "C=CC(=O)N1CCC(N[C@H]2CCc3cc(-n4c(-c5cccnc5F)nc5ccc(-n6cccn6)nc54)ccc32)CC1", "assay-result": 280}

P: C=CC(=O)N1CCC(N[C@@H]2c3ccc(-n4c(-c5ccccc5F)nc5ccc(-n6cccn6)nc54)cc3CC2F)C[C@H]1C (single isomer, unassigned) [Example 319]
Q: C=CC(=O)N1CCC(N[C@H]2CCc3cc(-n4c(-c5cccnc5N)nc5ccc(-n6cccn6)nc54)ccc32)C[C@@H]1COC (single isomer, unassigned) [Example 164]
R: C=CC(=O)N1CCC(N[C@H]2CCc3cc(-n4c(-c5cccnc5N)nc5ccc(-c6nc(C)co6)nc54)ccc32)CC1
S: C=CC(=O)N1CCC(N[C@H]2CCc3cc(-n4c(-c5cccnc5N)nc5ccc(C6CC6)nc54)ccc32)CC1
Sort the molecules on IC50; start with the lowest figure. Output spec: labels arranged per the requested ranking.
R, P, S, Q
(R: 58.8 nM, P: 301 nM, S: 865 nM, Q: 4100 nM)
